Biological target: Cytochrome P450 2C9 (Homo sapiens)
Sequence (P11712 whole entry): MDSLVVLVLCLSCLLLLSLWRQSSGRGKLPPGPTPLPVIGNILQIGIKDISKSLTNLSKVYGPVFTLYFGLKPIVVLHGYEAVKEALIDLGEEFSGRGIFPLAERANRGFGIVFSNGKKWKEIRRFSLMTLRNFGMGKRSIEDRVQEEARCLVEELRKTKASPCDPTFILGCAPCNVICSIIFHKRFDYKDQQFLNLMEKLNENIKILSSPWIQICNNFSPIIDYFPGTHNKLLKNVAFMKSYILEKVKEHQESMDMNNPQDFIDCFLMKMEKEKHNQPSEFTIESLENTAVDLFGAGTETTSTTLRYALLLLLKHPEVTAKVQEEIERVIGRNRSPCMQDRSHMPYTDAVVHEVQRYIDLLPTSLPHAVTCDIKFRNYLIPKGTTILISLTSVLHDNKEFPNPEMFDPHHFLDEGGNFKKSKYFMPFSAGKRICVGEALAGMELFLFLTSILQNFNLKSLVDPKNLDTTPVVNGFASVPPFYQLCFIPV
REPORTED METRIC: IC50 (µM)

a = CC(C)(C(=O)Nc1nncs1)[C@@H]1c2ccc(-c3ccc(C(=O)N4CCOCC4)cc3)nc2Oc2c(F)cccc21
b = CC(C)(C(=O)NC(N)=O)[C@@H]1c2ccc(-c3ccc(C(=O)N4CCOCC4)cc3)nc2Oc2c(F)cccc21
Request: Look at a and b . Which one has the lower recorded IC50 number? Give the chosen item's label as your response.
Result: a
(a: 1 µM, b: 14 µM)

---

Molecular target: Glucocorticoid receptor (Homo sapiens, UniProt P04150)
Sequence (P04150 whole entry): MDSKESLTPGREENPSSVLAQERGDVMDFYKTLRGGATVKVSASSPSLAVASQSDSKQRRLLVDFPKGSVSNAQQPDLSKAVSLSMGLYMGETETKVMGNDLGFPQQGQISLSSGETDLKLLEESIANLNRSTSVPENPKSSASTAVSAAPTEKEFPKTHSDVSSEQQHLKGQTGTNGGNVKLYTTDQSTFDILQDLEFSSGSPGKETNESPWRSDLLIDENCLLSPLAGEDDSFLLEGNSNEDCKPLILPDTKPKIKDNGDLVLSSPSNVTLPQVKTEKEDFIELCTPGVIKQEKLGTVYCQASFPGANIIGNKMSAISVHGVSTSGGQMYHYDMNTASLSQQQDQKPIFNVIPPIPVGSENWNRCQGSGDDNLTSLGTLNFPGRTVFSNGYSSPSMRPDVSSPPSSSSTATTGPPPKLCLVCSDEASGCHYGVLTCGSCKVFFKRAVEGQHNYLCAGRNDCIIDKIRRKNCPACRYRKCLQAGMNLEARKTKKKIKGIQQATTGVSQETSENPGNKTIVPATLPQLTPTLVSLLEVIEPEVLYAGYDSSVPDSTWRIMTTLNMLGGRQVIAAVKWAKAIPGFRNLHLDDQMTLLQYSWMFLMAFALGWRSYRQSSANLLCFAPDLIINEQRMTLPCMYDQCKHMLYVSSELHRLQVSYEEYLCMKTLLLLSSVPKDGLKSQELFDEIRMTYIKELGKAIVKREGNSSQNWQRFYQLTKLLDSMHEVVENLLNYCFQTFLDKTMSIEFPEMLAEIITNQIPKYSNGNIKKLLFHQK
REPORTED METRIC: Ki (nM)

RECORD SMILES: CC(=O)NC(=O)C(C)(C)[C@@H]1c2ccc(-c3ccc(C(=O)N4CCOCC4)cc3)nc2Oc2c(F)cccc21
Ki / nM: 5.9

I = CC(=O)NC(=O)C(C)(C)[C@@H]1c2ccc(-c3ccc(C(=O)N(C)C)cc3)nc2Oc2c(F)cccc21
II = CC(C)(C(=O)NC(=O)NC1CCC1)[C@@H]1c2ccc(-c3ccc(C(=O)N4CCOCC4)cc3)nc2Oc2c(F)cccc21
Request: I'd appreciate it if you could identify which of I and II has the greater Ki. Give the chosen item's label as your response.
Result: I

I = CCN(C)C(=O)c1ccc(-c2ccc3c(n2)Oc2ccccc2[C@@H]3C(C)(C)C(=O)Nc2nncs2)cc1
II = CC(C)(O)c1ccc(-c2ccc3c(n2)Oc2c(F)cccc2[C@@H]3C(C)(C)C(=O)NC(N)=O)cn1
Request: I'd appreciate it if you could identify which of I and II has the greater Ki. Give the chosen item's label as your response.
Result: II
(II: 4 nM, I: 1.6 nM)

---

Tested on: Liver microsome
Assay: Metabolic stability in rat liver microsomes assessed as compound remaining
REPORTED METRIC: Stability (%)

RECORD SMILES: CC(C)(O)c1ccc(-c2ccc3c(n2)Oc2c(F)cccc2[C@@H]3C(C)(C)C(=O)NC(N)=O)cn1
UNIT OF MEASUREMENT: %
Stability: 83
//
RECORD SMILES: CC(C)(C(=O)NC(N)=O)[C@@H]1c2ccc(-c3ccc(C(=O)N4CCCC4)nc3)nc2Oc2c(F)cccc21
UNIT OF MEASUREMENT: %
Stability: 86
//
RECORD SMILES: CC(C)Oc1ccc(-c2ccc3c(n2)Oc2c(F)cccc2[C@@H]3C(C)(C)C(=O)NC(N)=O)cn1
UNIT OF MEASUREMENT: %
Stability: 58
//
RECORD SMILES: CC(C)(C(=O)NC(N)=O)[C@@H]1c2ccc(-c3ccc(C(=O)N4CCOCC4)cc3)nc2Oc2c(F)cccc21
UNIT OF MEASUREMENT: %
Stability: 90
//
RECORD SMILES: CC(C)(C(=O)NC(N)=O)[C@H]1c2ccccc2Oc2nc(-c3ccc(C(=O)N4CCOCC4)cc3)ccc21
UNIT OF MEASUREMENT: %
Stability: 86
//
RECORD SMILES: CC(C)(C(=O)NC(N)=O)[C@@H]1c2ccc(-c3ccc(C(=O)N4CCCC4)cc3)nc2Oc2c(F)cccc21
UNIT OF MEASUREMENT: %
Stability: 71
//
RECORD SMILES: CC(C)(C(=O)NC(N)=O)[C@H]1c2ccccc2Oc2nc(-c3ccc(C(=O)N4CCCC4)cc3)ccc21
UNIT OF MEASUREMENT: %
Stability: 49
//
RECORD SMILES: CC(C)(C(=O)NC(N)=O)[C@@H]1c2ccc(-c3ccc(C(=O)N4CC[C@H](F)C4)cc3)nc2Oc2c(F)cccc21
UNIT OF MEASUREMENT: %
Stability: 67
